The origin of these recorded values is patent US20250388589A1.

Tested on: Kuramochi cell line
Assay: Cell Viability Assay (Cell Titer-Glo, 7 days)
Type: cell-based
Details: 168 h, Kuramochi cells, 7 days incubation, read-out: PARG Cell viability (IC50)
Procedure: Cell viability studies were conducted in Kuramochi cell line. Cells were maintained in RPMI (Hyclone, Catalog #: SH3080901B) supplemented with 10% v/v FBS (AusGeneX, Catalog #: FBS500-S), 1% v/v Penicillin Streptomycin (Gibco, Catalog #: 15140122). […] Cell viability was measured using the Cell Titer-Glo reagent (Promega, Catalog #: G7573) as manufacturer's instructions. Luminescence signal was measured with a multimode plate reader (Perkin Elmer, Envision 2105 or BMG, ClarioStar Plus). […]
pIC50: −log10 of the molar value.
ATTRIBUTE_MEASURED: pIC50

CC(C)C(=O)N1CCC(c2ncnc3c2c2cc(F)c(S(=O)(=O)NC4(C#N)CC4)cc2n3-c2nnc(C(F)F)s2)CC1 [Example 90]: > 7.00
CC(C)(C)[S+]([O-])N1CCN(c2ncnc3c2c2ccc(S(=O)(=O)NC4(C#N)CC4)cc2n3-c2nnc(C(F)F)s2)CC1 (stereo not shown) [Example 70]: > 7.00
N#CC1(NS(=O)(=O)c2ccc3c4c(N5CCC(N6CCCC6)[C@@H](F)C5)ncnc4n(-c4nnc(C(F)F)s4)c3c2)CC1 (stereo partly shown) [Example 207]: > 7.00
N#CC1(NS(=O)(=O)c2ccc3c4c(N5CC6CC(C5)O6)ncnc4n(-c4nnc(C(F)F)s4)c3c2)CC1 [Example 176]: > 7.00
CC(C)C(=O)N1[C@H](C)CN(c2ncnc3c2c2ccc(S(=O)(=O)NC4(C#N)CC4)cc2n3-c2nnc(C(F)F)s2)C[C@@H]1C [Example 62]: > 7.00
CC1(NS(=O)(=O)c2ccc3c4c(N5CCN6CCOC[C@H]6C5)ncnc4n(-c4nnc(C(F)F)s4)c3c2)CC1 [Example 184]: 6.00 to 7.00
C[C@H]1CC(c2ncnc3c2c2ccc(S(=O)(=O)NC4(C#N)CC4)cc2n3-c2nnc(C(F)F)s2)CCN1 (stereo partly shown) [Example 150]: 6.00 to 7.00
CN(C)C(=O)c1ccc(-c2ncnc3c2c2ccc(S(=O)(=O)NC4(C#N)CC4)cc2n3-c2nnc(C(F)F)s2)cc1 [Example 43]: 6.00 to 7.00
CC1(NS(=O)(=O)c2ccc3c4c(C5CCN(C(=O)C(C)(C)O)CC5)ncnc4n(-c4nnc(C(F)F)s4)c3c2)CC1 [Example 94]: > 7.00
CCN1CCN(c2ncnc3c2c2ccc(S(=O)(=O)NC4(C#N)CC4)cc2n3-c2nnc(C(F)F)s2)C[C@@H]1C [Example 163]: > 7.00
CC(C)C(=O)N1C[C@H]2CC[C@@H]1CN2c1ncnc2c1c1ccc(S(=O)(=O)NC3(C#N)CC3)cc1n2-c1nnc(C(F)F)s1 [Example 32]: 6.00 to 7.00
C[C@@H]1CN(c2ncnc3c2c2ccc(S(=O)(=O)NC4(C#N)CC4)cc2n3-c2nnc(C(F)F)s2)CCN1C(=O)C1CCC1 [Example 5]: 6.00 to 7.00
C[C@@H]1CN(C(=O)N(C)C)[C@@H](C)CN1c1ncnc2c1c1ccc(S(=O)(=O)NC3(C)CC3)cc1n2-c1nnc(C(F)F)s1 [Example 100]: > 7.00
